biological target: BACE-1 β-Secretase recombinant human enzyme (Homo sapiens, UniProt P56817); experiment: BACE assay (time-resolved fluorescence, TruPoint BACE1 substrate); conditions: 200 nM peptide substrate, 8 nM enzyme, sodium acetate pH 4.5, 1 h at room temperature; read-out: IC50 Inhibition of BACE Activity
Sequence (P56817 46-501): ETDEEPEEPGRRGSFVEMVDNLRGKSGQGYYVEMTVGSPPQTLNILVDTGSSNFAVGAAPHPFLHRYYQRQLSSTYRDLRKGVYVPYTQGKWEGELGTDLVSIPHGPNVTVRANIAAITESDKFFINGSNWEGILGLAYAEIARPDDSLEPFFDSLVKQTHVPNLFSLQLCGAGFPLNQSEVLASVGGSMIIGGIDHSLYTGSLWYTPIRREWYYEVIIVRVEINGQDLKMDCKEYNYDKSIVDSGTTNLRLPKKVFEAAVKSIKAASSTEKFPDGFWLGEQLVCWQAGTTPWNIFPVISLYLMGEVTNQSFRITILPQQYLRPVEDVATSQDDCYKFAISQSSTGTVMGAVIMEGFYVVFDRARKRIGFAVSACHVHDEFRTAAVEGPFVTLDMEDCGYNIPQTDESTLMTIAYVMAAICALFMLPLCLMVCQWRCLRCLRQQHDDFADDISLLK
Entries whose IC50 is below 700 nM take Met; entries at or above 700 nM take Not met.

{"given.smiles": "NC1=NC(=Cc2ccc(-c3ncccn3)o2)C(=O)N1", "class.assignment": "Not met"}
{"given.smiles": "NC1=NC(=Cc2ccc(-c3ccc4c(c3)OCO4)o2)C(=O)N1", "class.assignment": "Met"}
{"given.smiles": "COc1ncccc1-c1ccc(C=C2N=C(N)NC2=O)o1", "class.assignment": "Met"}
{"given.smiles": "COCCN1C(=O)C(=Cc2ccc(-c3ccc(OC)c(Cl)c3)o2)N=C1N", "class.assignment": "Not met"}
{"given.smiles": "COc1ccc(-c2ccc(C=C3N=C(N)NC3=O)o2)cc1", "class.assignment": "Met"}
{"given.smiles": "Cc1noc(C)c1-c1ccc(C=C2N=C(N)NC2=O)o1", "class.assignment": "Met"}
{"given.smiles": "COc1ccc(-c2ccc(C=C3N=C(N)N(C)C3=O)o2)cc1Cl", "class.assignment": "Met"}
{"given.smiles": "COc1ccc(-c2ccc(C=C3N=C(N)NC3=O)o2)c(OC)c1", "class.assignment": "Met"}
{"given.smiles": "COc1ccc(-c2ccc(C=C3N=C(N)N(C)C3=O)o2)c(OC)c1", "class.assignment": "Met"}
{"given.smiles": "CN1C(=O)C(=Cc2ccc(-c3ccc([N+](=O)[O-])cc3)o2)N=C1N", "class.assignment": "Met"}
{"given.smiles": "COc1ncccc1-c1ccc(C=C2N=C(N)N(C)C2=O)o1", "class.assignment": "Met"}
{"given.smiles": "COc1ccc(C#N)cc1-c1ccc(C=C2N=C(N)N(C)C2=O)o1", "class.assignment": "Met"}
{"given.smiles": "NC1=NC(=Cc2ccc(-c3ccc([N+](=O)[O-])cc3)o2)C(=O)N1", "class.assignment": "Met"}
{"given.smiles": "COc1ncc(-c2ccc(C=C3N=C(N)NC3=O)o2)c(OC)n1", "class.assignment": "Not met"}
{"given.smiles": "COc1ccc(-c2ccc(C=C3N=C(N)N(Cc4ccccc4)C3=O)o2)cc1Cl", "class.assignment": "Not met"}
{"given.smiles": "Cc1noc(C)c1-c1ccc(C=C2N=C(N)N(C)C2=O)o1", "class.assignment": "Not met"}
{"given.smiles": "COc1ccc(-c2ccc(C=C3N=C(N)NC3=O)o2)cc1Cl", "class.assignment": "Met"}

---

system: Aβ secretion; assay: Inhibition of beta-amyloid secretion (Aβ1-40 ELISA of cell culture supernatants); assay type: cell-based; conditions: CHO-7W; CHO7w cell line stably transfected with human BACE, 48 hours, Aβ (1-40) in supernatants
Reported IC50 values for the following molecules.

{"molecule": "COc1ccc(-c2ccc(C=C3N=C(N)NC3=O)o2)cc1 [Compound 17]", "IC50": "35 µM"}
{"molecule": "COc1ncccc1-c1ccc(C=C2N=C(N)NC2=O)o1 [Compound 5]", "IC50": "40 µM"}
{"molecule": "COC(=O)c1ccc(OC)c(-c2ccc(C=C3N=C(N)NC3=O)o2)c1 [Compound 9]", "IC50": "45 µM"}
{"molecule": "NC1=NC(=Cc2ccc(-c3ccc4c(c3)OCO4)o2)C(=O)N1 [Compound 4]", "IC50": "30 µM"}
